tested on: OVCAR-8 ovarian; assay: NCI-60 one-dose screen, 48 h (100 = growth as untreated, 0 = no growth, -100 = all killed); conditions: 10 µM unless noted
About 83,000 compounds went through this panel and 20% of them were active in at least one assay; those are over-represented in the sample as a whole.
Recorded growth, one value per entry.
Property Name: growth (%)

INSERT INTO measurements (compound_structure_string, system, measured_value) VALUES
  ('Cn1cc(-c2nonc2-c2cn(C)c3ccc(F)cc23)c2ccccc21', 'OVCAR-8 ovarian', 28.5),
  ('COc1cc(CNc2oc(-c3ccccc3)c(-c3ccccc3)c2C#N)cc(CN2CCN(C)CC2)c1O', 'OVCAR-8 ovarian', 94.5),
  ('COc1cc(C(=O)/C=C/c2cccnc2Nc2ccc(Cl)cc2)cc(OC)c1OC', 'OVCAR-8 ovarian', -17.6),
  ('O=c1ccccc(-c2ccc(Br)cc2)c1O', 'OVCAR-8 ovarian', 13),
  ('CCN(CC)c1ccc(/C=N\NC(=O)/C=C/C=C/c2ccc3c(c2)OCO3)c(O)c1', 'OVCAR-8 ovarian', 32.9),
  ('O=C(Cc1ccccc1Nc1c(Cl)cccc1Cl)NN1C(=O)/C(=C/c2ccc(Br)cc2)SC1=S', 'OVCAR-8 ovarian', 100),
  ('CCOC(=O)c1c(CN2CCN(C)CC2)nc2ccc(Cl)cc2c1-c1ccccc1', 'OVCAR-8 ovarian', 84),
  ('O=C1/C(=C/C(Cl)=C/c2ccccc2)SC(=S)N1CCc1ccc(O)cc1', 'OVCAR-8 ovarian', 16.7),
  ('C=C(C)C(=O)Nc1ccc(NC(C)C)cc1', 'OVCAR-8 ovarian', 93.5),
  ('CC1=C/C(=C(\c2ccc(N(C)C)cc2)c2ccc([N+](C)(C)C)cc2)C=CC1=[N+](C)C', 'OVCAR-8 ovarian', 36.2);

From: PubChem BioAssay (NCI)
